Test system: SR leukemia
Assay: NCI tumour cell line growth inhibition, 48 h

{"molecule": "CCCCNC(=O)NNC(=O)c1cc(/C=C/c2cccc([N+](=O)[O-])c2)ncn1", "study.system": "SR leukemia", "TGI": "> 100 µM"}
{"molecule": "CS(=O)(=O)OCCn1c2c(c3c(O)cccc31)C(=O)c1ccccc1-2", "study.system": "SR leukemia", "TGI": "> 100 µM"}
{"molecule": "O=c1oc2ccccc2c(O)c1/C=N\\c1nc(-c2ccc(O)c(O)c2)cs1", "study.system": "SR leukemia", "TGI": "4.43 µM"}
{"molecule": "NC(=O)c1cc(Cl)ccc1NC(=O)COc1ccccc1", "study.system": "SR leukemia", "TGI": "> 100 µM"}
{"molecule": "C=CCN=C1N=C(C)C(C(=O)OCC)S1 (stereo not given)", "study.system": "SR leukemia", "TGI": "> 100 µM"}
{"molecule": "C=C(C)C12OC3(c4ccccc4)OC1C1C4OC4(CO)C(O)C4(O)C(=O)C(C)=CC4C1(O3)C(C)C2OC(=O)/C=C/C=C/c1ccccc1 (stereo not given)", "study.system": "SR leukemia", "TGI": "0.385 µM"}
{"molecule": "COc1cc(/C=C\\c2cc(/C=C\\c3ccc(O)c(OC)c3)n(C(=O)COc3ccccc3)n2)ccc1O", "study.system": "SR leukemia", "TGI": "2.46 µM"}
{"molecule": "COc1ccc2c(c1)C(=O)c1c-2c(=O)n(CCCCCCC(=O)NO)c2ccccc12", "study.system": "SR leukemia", "TGI": "> 100 µM"}
{"molecule": "Cc1ccc(-c2cc(-c3cc(-c4ccc(C)cc4C)n[nH]3)[nH]n2)c(C)c1", "study.system": "SR leukemia", "TGI": "26.5 µM"}
{"molecule": "O=c1ccc2[n+]([O-])c3ccc(O)cc3oc-2c1", "study.system": "SR leukemia", "TGI": "> 64 µM"}
{"molecule": "O=C1C=C2C(=CCOC2O)O1 (stereo not given)", "study.system": "SR leukemia", "TGI": "8.51 µM"}
{"molecule": "Cc1cc(-c2ccc(C3C(C#N)=C(N)Oc4c3c(=O)oc3ccccc43)cc2)cnc1F (stereo not given)", "study.system": "SR leukemia", "TGI": "> 100 µM"}
{"molecule": "CNC[C@@H](NC(=O)c1ccc(-c2nc([C@H]3CC[C@H](O)[C@@H](F)C3)cnc2N)cc1F)c1cc(F)cc(Br)c1", "study.system": "SR leukemia", "TGI": "35.3 µM"}
{"molecule": "CCCCc1ccc(N2C(=O)c3cc([N+](=O)[O-])cnc3S2(=O)=O)cc1", "study.system": "SR leukemia", "TGI": "> 100 µM"}
{"molecule": "Nc1nc2c(ncn2C2C=CC(COS(N)(=O)=O)C2)c(=O)[nH]1 (stereo not given)", "study.system": "SR leukemia", "TGI": "> 100 µM"}
{"molecule": "Cc1ccc(-n2c(=S)[nH]c3ccc(Br)cc3c2=O)cc1", "study.system": "SR leukemia", "TGI": "> 100 µM"}
{"molecule": "O=c1oc2ccccc2c(O)c1C(C/C(CCN1CCCC1)=N/O)c1ccccc1 (stereo not given)", "study.system": "SR leukemia", "TGI": "> 100 µM"}
{"molecule": "CCCCCCCCCOc1c(OC)cc(C2CC(=O)Nc3c2c(C)nn3-c2nc3ccccc3[nH]2)cc1OC (stereo not given)", "study.system": "SR leukemia", "TGI": "6.51 µM"}
{"molecule": "COc1ccc(CNC(=O)[C@H](Cc2ccc(O)cn2)NC(C)=O)cc1OC", "study.system": "SR leukemia", "TGI": "> 100 µM"}
{"molecule": "C[C@@]1(O)C2C3CC4C5C3C1[C@](O)(C42)[C@H]5Br (stereo not given in full)", "study.system": "SR leukemia", "TGI": "> 100 µM"}
